IC50 overview
System: AGS cells (KRAS G12D)
Method Description: Cell proliferation inhibition assay, 3D, CellTiter-Glo 3D, AGS
Format: cell-based, human
Experimental Parameters: AGS 3D sphere model, 5 days incubation
Expressed in nM, but write only the number.

Example cases with answers are listed next.
compound="C#Cc1c(F)ccc2cccc(-c3nc4c5c(nc(OCC67CCC8(CC8)N6CC(=C)C7)nc5c3F)N3C[C@H]5CC[C@H](N5)[C@H]3[C@H](C)O4)c12 (some centres unmarked)" quantitative_readout=47.9
compound="C#Cc1c(F)ccc2cccc(-c3nc4c5c(nc(OCC67CC(OC)CN6CCC7=C)nc5c3F)N3C[C@H]5CC[C@H](N5)[C@H]3[C@H](C)O4)c12 (some centres unmarked)" quantitative_readout=13
compound=C#Cc1c(F)ccc2cccc(-c3nc4c5c(nc(OC[C@]67CCCN6CCC7=C)nc5c3F)N3C[C@H]5CC[C@H](N5)[C@H]3[C@H](C(F)F)O4)c12 quantitative_readout=39.1
compound="C#Cc1cccc2cc(N)cc(-c3nc4c5c(nc(OCC67C[C@@H](F)CN6CCC7=C)nc5c3F)N3C[C@H]5CC[C@H](N5)[C@H]3[C@H](C)O4)c12 (some centres unmarked)" quantitative_readout=1.66
compound="C#Cc1c(F)ccc2cccc(-c3nc4c5c(nc(OC[C@]67CC(=C)CN6CC[C@@H]7OC)nc5c3F)N3C[C@H]5CC[C@H](N5)[C@H]3[C@H](C)O4)c12 (single isomer, unassigned)" quantitative_readout=36.1
compound="C#Cc1c(F)ccc2cccc(-c3nc4c5c(nc(OCC67CCCN6[C@H]6C[C@H]6C7)nc5c3F)N3C[C@H]5CC[C@H](N5)[C@H]3[C@H](C)O4)c12 (some centres unmarked)" quantitative_readout=107

Entry C#Cc1cccc2cc(N)cc(-c3nc4c5c(nc(OCC67CC(=C)CN6CC(=C)C7)nc5c3F)N3C[C@H]5CC[C@H](N5)[C@H]3[C@H](C)O4)c12 : IC50 on AGS cells (KRAS G12D) = 2.64

Field IC50 (AGS cells (KRAS G12D)), entry C#Cc1cccc2cc(N)cc(-c3nc4c5c(nc(OC[C@@H]6C[C@@H](F)CN6C)nc5c3F)N3C[C@H]5CC[C@H](N5)[C@H]3[C@H](C)O4)c12 : 10.8

Entry C#Cc1c(F)ccc2cccc(-c3nc4c5c(nc(OCC67CC(=C)CN6CCC76CC6)nc5c3F)N3C[C@H]5CC[C@H](N5)[C@H]3[C@H](C)O4)c12 (some centres unmarked) under AGS cells (KRAS G12D) had IC50 of 26.5

Bench note, AGS cells (KRAS G12D): entry C#Cc1c(F)ccc2cccc(-c3nc4c5c(nc(OCC67CC(=C)CN6CC6(CC6)C7)nc5c3F)N3C[C@H]5CC[C@H](N5)[C@H]3[C@H](C)O4)c12 (some centres unmarked) , its IC50 = 10.8

C#Cc1c(F)ccc2cccc(-c3nc4c5c(nc(OCC67CC(=C)CN6C[C@H](F)C7)nc5c3F)N3CC5CCC(N5)C3C(CF)O4)c12 (some centres unmarked) on AGS cells (KRAS G12D) gives IC50 = 393

# credit: patent US20250186456A1
